Please respond with reported Ka binding affinity with oligo-2 for every item in the list.
test system: oligo-2: d(CGATGTACATCG)2; assay: Fluorescence titration; type: binding; settings: 20 °C, pH 7.2

Provide Ka binding affinity with oligo-2, recorded with oligo-2: d(CGATGTACATCG)2, of CCCCN1CCN(c2ccc3[nH]c(-c4ccc5[nH]c(-c6ccc(OCC)cc6)nc5c4)nc3c2)CC1 [12e]
3 × 10^6 M^1

Give Ka binding affinity with oligo-2 for this entry on oligo-2: d(CGATGTACATCG)2: CCCN1CCN(c2ccc3nc(-c4ccc5nc(-c6cc(OC)ccc6OC)[nH]c5c4)[nH]c3c2)CC1 [11c]
3 × 10^6 M^1

Would you please give the reported Ka binding affinity with oligo-2 of CCOc1ccc(-c2nc3cc(-c4nc5cc(N6CCN(C)CC6)ccc5[nH]4)ccc3[nH]2)cc1OCC [10a] with oligo-2: d(CGATGTACATCG)2?
2 × 10^6 M^1

Look up and report measured Ka binding affinity with oligo-2 (oligo-2: d(CGATGTACATCG)2) for the following compound: CN1CCN(c2ccc3[nH]c(-c4ccc5[nH]c(-c6ccc(C(F)(F)F)cc6)nc5c4)nc3c2)CC1 [10b]
3 × 10^6 M^1

Enter Ka binding affinity with oligo-2 (test system oligo-2: d(CGATGTACATCG)2) for CCCN1CCN(c2ccc3[nH]c(-c4ccc5[nH]c(-c6ccc(C(F)(F)F)cc6)nc5c4)nc3c2)CC1 [11b]
2 × 10^6 M^1

# lookup: oligo-2: d(CGATGTACATCG)2 Ka binding affinity with oligo-2, key = CCCN1CCN(c2ccc3[nH]c(-c4ccc5[nH]c(-c6ccc(OCC)c(OCC)c6)nc5c4)nc3c2)CC1 [11a]
5 × 10^6 M^1

// fetch Ka binding affinity with oligo-2 for CCOc1ccc(-c2nc3ccc(-c4nc5ccc(N6CCN(CCN(C)C)CC6)cc5[nH]4)cc3[nH]2)cc1OCC [13a] ; system: oligo-2: d(CGATGTACATCG)2
2 × 10^6 M^1

Report the value of Ka binding affinity with oligo-2 obtained on oligo-2: d(CGATGTACATCG)2 for CCCN1CCN(c2ccc3[nH]c(-c4ccc5[nH]c(-c6cc(OC)c(OC)c(OC)c6)nc5c4)nc3c2)CC1 [11d] .
1 × 10^6 M^1

Provide Ka binding affinity with oligo-2, recorded with oligo-2: d(CGATGTACATCG)2, of CCCCN1CCN(c2ccc3nc(-c4ccc5nc(-c6cc(OC)ccc6OC)[nH]c5c4)[nH]c3c2)CC1 [12c]
2 × 10^6 M^1

Under oligo-2: d(CGATGTACATCG)2, report Ka binding affinity with oligo-2 for CCCCN1CCN(c2ccc3[nH]c(-c4ccc5[nH]c(-c6ccc(C(F)(F)F)cc6)nc5c4)nc3c2)CC1 [12b]
2 × 10^6 M^1

Report measured Ka binding affinity with oligo-2 on oligo-2: d(CGATGTACATCG)2; entry: CCCCN1CCN(c2ccc3[nH]c(-c4ccc5[nH]c(-c6cc(OC)c(OC)c(OC)c6)nc5c4)nc3c2)CC1 [12d]
4 × 10^6 M^1

State the measured Ka binding affinity with oligo-2 (oligo-2: d(CGATGTACATCG)2) of COc1cc(-c2nc3ccc(-c4nc5ccc(N6CCN(CCN(C)C)CC6)cc5[nH]4)cc3[nH]2)cc(OC)c1OC [13d]
1 × 10^6 M^1

Enter Ka binding affinity with oligo-2 (test system oligo-2: d(CGATGTACATCG)2) for CCCCN1CCN(c2ccc3[nH]c(-c4ccc5[nH]c(-c6ccc(OCC)c(OCC)c6)nc5c4)nc3c2)CC1 [12a]
4 × 10^6 M^1

Give measured Ka binding affinity with oligo-2 for CCOc1ccc(-c2nc3ccc(-c4nc5ccc(N6CCN(C)CC6)cc5[nH]4)cc3[nH]2)cc1 [Hoechst 33342, reference compound] (oligo-2: d(CGATGTACATCG)2).
5 × 10^6 M^1

# assay system oligo-2: d(CGATGTACATCG)2: give Ka binding affinity with oligo-2 of COc1ccc(OC)c(-c2nc3ccc(-c4nc5ccc(N6CCN(C)CC6)cc5[nH]4)cc3[nH]2)c1 [10c]
2 × 10^6 M^1

Given COc1ccc(OC)c(-c2nc3ccc(-c4nc5ccc(N6CCN(CCN(C)C)CC6)cc5[nH]4)cc3[nH]2)c1 [13c] , report its Ka binding affinity with oligo-2 on oligo-2: d(CGATGTACATCG)2.
1 × 10^6 M^1
